Reference source: patent US20130029928A1

procedure-details: Phase I study CXR1002-001: plasma pharmacokinetics (LC-MS/MS)
Type: in vivo, human
condition-notes: human, plasma, oral, 300 mg, Patient 014 Dose 300 mg; 674 hr; read-out: Concentration
reported-endpoint: concentration at 674 h (µM)
The reply should be a number in µM, with the unit left off.

*Q* // returns reported concentration at 674 h for input O=C(O)C(F)(F)C(F)(F)C(F)(F)C(F)(F)C(F)(F)C(F)(F)C(F)(F)F [CXR1002]
*A* 389

---

procedure-details: Phase I study CXR1002-001: plasma pharmacokinetics (LC-MS/MS)
Type: in vivo, human
condition-notes: human, plasma, po, 1000 mg, Patient 042, 1000 mg weekly oral dose, Time 172 hr; read-out: Concentration (plasma level)
reported-endpoint: concentration at 172 hr (µM)
The reply should be a number in µM, with the unit left off.

*Q* // returns reported concentration at 172 hr for input `O=C(O)C(F)(F)C(F)(F)C(F)(F)C(F)(F)C(F)(F)C(F)(F)C(F)(F)F`
*A* 436
